These entries and their values trace back to PubChem BioAssay (NCI).

Below: a set of entries, each annotated with reported GI50.
# Tested on: SK-OV-3 ovarian
# assay_name: NCI tumour cell line growth inhibition, 48 h
recorded_metric: GI50

compound="C=C1CCC2C3(C)COC(c4c(OC)cccc4OC)OC3CCC2(C)C1C/C=C1/C(=O)OCC1O (stereo unspecified)" target_entity="SK-OV-3 ovarian" result="5.71 µM"
compound=CC(C)(CCN=C(N)Nc1ccccn1)c1ccc(C(F)(F)F)cc1 target_entity="SK-OV-3 ovarian" result="15.8 µM"
compound="NC1CCC(Nc2nc(NCc3cc(Cl)ccc3O)c3ncn(C4CCCC4)c3n2)CC1 (stereo unspecified)" target_entity="SK-OV-3 ovarian" result="0.494 µM"
compound="CC1SC2(CCC(c3ccccc3)CC2)N(NC(=O)c2[nH]c3ccc(F)cc3c2-c2ccccc2)C1=O (stereo unspecified)" target_entity="SK-OV-3 ovarian" result="54.3 µM"
compound="C=C1CC[C@@H]2[C@](C)(COC(C)=O)[C@H](OC(C)=O)CC[C@@]2(C)[C@@H]1CC(Nc1ccc(S(=O)(=O)Nc2cc(C)on2)cc1)C1=CCOC1=O (stereo partly specified)" target_entity="SK-OV-3 ovarian" result="11 µM"
compound=CNc1cc2nc3cc(NC)c(C)cc3cc2cc1C target_entity="SK-OV-3 ovarian" result="0.695 µM"
compound=Nc1ccccc1NC(=O)c1ccc(CN2CCC/C(=C\c3ccccn3)C2=O)cc1 target_entity="SK-OV-3 ovarian" result="1.93 µM"
compound=O=C1C(=O)c2ccccc2C(O)=C1CCCc1ccc(C2CCCC2)cc1 target_entity="SK-OV-3 ovarian" result="12.5 µM"
compound=CN(C)CCC=C1c2ccccc2C(C)(C)c2ccccc21 target_entity="SK-OV-3 ovarian" result="15.5 µM"
compound="CC1=C(C(=O)Nc2ccc3[nH]ncc3c2)C(c2ccc(Cl)c(Cl)c2)CC(=O)N1 (stereo unspecified)" target_entity="SK-OV-3 ovarian" result="> 25 µM"
compound=Cc1ccc(/C=C/C(=N/N=C(N)N)c2ccccc2)cc1 target_entity="SK-OV-3 ovarian" result="2.99 µM"
compound=COc1cc2nc(-c3ccc(Cl)cc3)cc(OCCCN3CCCC3)c2cc1OC target_entity="SK-OV-3 ovarian" result="2.42 µM"
compound=Cc1[nH]c(C(=O)Nc2ccccc2OC2CCNCC2)c(Cl)c1Cl target_entity="SK-OV-3 ovarian" result="8.46 µM"
compound=N#Cc1ccsc1NC(=O)COC(=O)c1cccc(S(=O)(=O)N2CCc3ccccc32)c1 target_entity="SK-OV-3 ovarian" result="> 100 µM"
compound=CCCCCCCCCCCCCCCC(=O)N[C@H](/C=C/[C@H](O)CCCCCCCCCCCCC)CO target_entity="SK-OV-3 ovarian" result="> 100 µM"
compound=N.N.O=P([O-])([O-])CN(CCN(CP(=O)([O-])[O-])CP(=O)([O-])[O-])CP(=O)([O-])[O-].[Pt+2] target_entity="SK-OV-3 ovarian" result="> 100 µM"

----------
# Test system: HCC-2998 colon
# assay_name: NCI tumour cell line growth inhibition, 48 h
Below: a set of entries, each annotated with reported TGI.
recorded_metric: TGI

molecule="CCOC(=O)C1=C(C)N(Cc2ccccc2)C(=O)C1CC#N (centres undefined)" target_entity="HCC-2998 colon" result="> 100 µM"
molecule="O=C(O)C1CCC(=O)N1S(=O)(=O)c1ccccc1 (centres undefined)" target_entity="HCC-2998 colon" result="> 100 µM"
molecule=CCOc1ccc2c(C)cc(=O)oc2c1 target_entity="HCC-2998 colon" result="> 100 µM"
molecule=NCCCCCCCCCCCn1c2c(c3ccccc3c1=O)C(=O)c1ccccc1-2 target_entity="HCC-2998 colon" result="9.72 µM"
molecule=CO[C@]12C=C/C(=C(/C(=O)OCc3cccnc3)C(=O)CCCCCCCC[C@@]3(OC)C=C/C(=C(/C(=O)OCc4cccnc4)C(=O)CCCCCCCC1)O3)O2 target_entity="HCC-2998 colon" result="1.84 µM"
molecule=c1ccc(CN2CCC3(CC2)SSC2(CCN(Cc4ccccc4)CC2)SS3)cc1 target_entity="HCC-2998 colon" result="> 100 µM"
molecule="Cn1c2ccccc2c(=O)c2c(O)cc3c(c21)CC(C1(C)CO1)O3 (centres undefined)" target_entity="HCC-2998 colon" result="5.4 µM"
molecule=CCC(=O)NC(Nc1cccc(F)c1)(C(F)(F)F)C(F)(F)F target_entity="HCC-2998 colon" result="> 100 µM"
molecule=CSCC[C@H](NC(=O)[C@H](CC(C)C)NC(=O)[C@@H](Cc1ccccc1)NC(=O)CNC(=O)[C@@H](NC(=O)[C@H](C)NC(=O)[C@H](Cc1c[nH]c2ccccc12)NC(=O)[C@H](CCC(N)=O)NC(=O)[C@H](N)CC(N)=O)C(C)C)C(N)=O target_entity="HCC-2998 colon" result="> 12.5 µM"

----------
# Tested on: HCT-15 colon
# assay_name: NCI tumour cell line growth inhibition, 48 h
recorded_metric: TGI

molecule=Cn1cc(-c2csc(-c3cn(CCCCN4CCCCC4)c4ccc(F)cc34)n2)c2cccnc21 result="3.06 µM"
molecule=O=C1CCCCC=C1C[N+](=O)[O-] result="35.8 µM"
molecule="CCCCCCC/C=C/[C@H]1O[C@]2(O)C(=O)C=C3C[C@@H](O[C@@H]4O[C@H](CO)[C@@H](O)C(O)[C@@H]4O)C[C@@H]3[C@H]2C=C1C (some centres undefined)" result="4.59 µM"
molecule="COC1(OC)N=C(N)C2(C#N)C3(C(=O)N(C(C)C)N=C3C)C12C#N (centres undefined)" result="> 100 µM"
molecule=C[N+](C)(CCCCCC[N+](C)(C)CCCN1C(=O)c2cc3ccccc3cc2C1=O)CCCN1C(=O)c2cc3ccccc3cc2C1=O result="> 37.5 µM"
molecule=Nc1ccccc1NC(=O)c1ccc(CN2CCC/C(=C\c3ccccn3)C2=O)cc1 result="> 100 µM"
molecule="Cc1ccc(C2N=C(N)NC3=C2CCOc2c3ccc3ccccc23)cc1 (centres undefined)" result="> 60.1 µM"
molecule="COC(=O)C(Cc1ccccc1)NP(=O)(O)OCC1OC(n2cc(I)c(=O)[nH]c2=O)CC1O (centres undefined)" result="> 100 µM"
molecule=CCOc1ccc2c(C)cc(=O)oc2c1 result="> 100 µM"

----------
# Test system: MDA-MB-231 breast
# assay_name: NCI tumour cell line growth inhibition, 48 h
Below: a set of entries, each annotated with reported log10(TGI).
recorded_metric: log10(TGI) (log10 of the value in µM)

compound=Cc1[nH]c(C(=O)Nc2ccccc2OC2CCNCC2)c(Cl)c1Cl numeric_result=0.25
compound=NCCCn1c2c(c3ccc([N+](=O)[O-])cc3c1=O)C(=O)c1cc(-c3ccccc3)ccc1-2 numeric_result=0.45
compound=CCCCCc1cc[n+](CC(=O)c2ccc([N+](=O)[O-])cc2)cc1 numeric_result=1.55
compound=Cc1c(-c2ccccc2)c(C#N)c2nnn(C3CCCCC3)c(=O)n12 numeric_result=1.82
compound=N=C(N)SCc1cc(Cl)cc(Cl)c1O numeric_result=1.48
compound=O=C(c1ccco1)c1c(C(F)(F)F)nc2ccc(C(F)(F)F)cc2[n+]1[O-] numeric_result=1.82
compound="Cc1cc(C)nc(SCC(=O)OC2CC(C)CCC2C(C)C)n1 (stereo not given)" numeric_result=1.70

----------
# Tested on: TK-10 renal
# assay_name: NCI tumour cell line growth inhibition, 48 h; in the data active = GI50 below about 0.43 µM; inactive = the rest
Labels: active, inactive

molecule="CC(=O)[CH-]C(=O)c1ccccc1.CC(=O)[CH-]C(=O)c1ccccc1.CC[C@H](/C=C/C(C)[C@H]1CCC2[C@@H]3CC=C4C[C@@H]([O-])CC[C@]4(C)C3CC[C@@]21C)C(C)C.CC[O-].[Ti+4] (stereo partly specified)" target_entity="TK-10 renal" assigned_class=inactive
molecule=Clc1nc(Cl)c2c3c(sc2n1)CCCC3 target_entity="TK-10 renal" assigned_class=inactive
molecule=CN(C)CCC=C1c2ccccc2C(C)(C)c2ccccc21 target_entity="TK-10 renal" assigned_class=inactive
molecule=COC(=O)c1ccc2c(c1)C(=O)c1c-2n(C)c(=O)c2cc(OC)c(OC)cc12 target_entity="TK-10 renal" assigned_class=inactive
molecule=CC(=O)c1ccc(Nc2nc(Nc3ccc(F)cc3)nc(Nc3ccc(F)cc3)n2)cc1 target_entity="TK-10 renal" assigned_class=inactive
molecule=O=C1C(Nc2ccc(Br)cc2)=C(I)C(=O)c2ncccc21 target_entity="TK-10 renal" assigned_class=inactive
molecule="O=C(NNc1ccc(F)cc1)C1CCC(CNS(=O)(=O)c2ccc(Cl)c(Cl)c2)CC1 (stereo unspecified)" target_entity="TK-10 renal" assigned_class=inactive
molecule=COC(=O)C[CH2][Ge]([CH3])([CH3])[S]c1ccccc1 target_entity="TK-10 renal" assigned_class=inactive
molecule="CC(=O)[CH-]C(=O)c1ccccc1.CC(=O)[CH-]C(=O)c1ccccc1.CC1(C)OCC(C2OC3OC(C)(C)OC3C2[O-])O1.CC1(C)OCC(C2OC3OC(C)(C)OC3C2[O-])O1.[Ti+4] (stereo unspecified)" target_entity="TK-10 renal" assigned_class=inactive
molecule="NC1CCC(Nc2nc(NCc3cc(Cl)ccc3O)c3ncn(C4CCCC4)c3n2)CC1 (stereo unspecified)" target_entity="TK-10 renal" assigned_class=active
molecule=Nc1ccccc1NC(=O)c1ccc(CN2CCC/C(=C\c3ccccn3)C2=O)cc1 target_entity="TK-10 renal" assigned_class=active
molecule=O=C(N=Nc1c(O)[nH]c2ccccc12)c1oc2ccccc2c1CN1CCN(c2ccccc2)CC1 target_entity="TK-10 renal" assigned_class=inactive
molecule=Clc1cc2c(nn1)Nc1ccccc1S2 target_entity="TK-10 renal" assigned_class=inactive
molecule=C[N+](C)(CCCCCC[N+](C)(C)CCCN1C(=O)c2cc3ccccc3cc2C1=O)CCCN1C(=O)c2cc3ccccc3cc2C1=O target_entity="TK-10 renal" assigned_class=inactive
molecule=Cn1cc(-c2csc(-c3cn(CCCCN4CCCCC4)c4ccc(F)cc34)n2)c2cccnc21 target_entity="TK-10 renal" assigned_class=inactive
molecule=O=C(c1ccco1)c1c(C(F)(F)F)nc2ccc(C(F)(F)F)cc2[n+]1[O-] target_entity="TK-10 renal" assigned_class=inactive
